Listed next: entries and their corresponding inhibition.
- Target Or System: FAD-linked sulfhydryl oxidase ALR (Homo sapiens)
- Assay Remarks: ALR-catalysed DTT oxidation blockers – biochemical, H2O2 detection, HRP-luminol luminescence, single point, primary screen (AID 485317)
- Recorded Conditions: purified ALR, stronger effect = higher value, concentration not given here
Out of some 290,000 compounds screened, about 11,000 (3.8%) were called active. Many of the other results were omitted from the sample, so actives are more common in it than they were.
Measure: inhibition (%)

>  <Molecule>
CC(OC(=O)c1ccc([N+](=O)[O-])cc1)C(=O)NCC1CCCCC1 (stereo not drawn)

>  <Value Measured>
-1.04

$$$$
>  <Molecule>
CCN(C[C@H]1N[C@@](CC)(C(=O)OC)[C@H]2C(=O)N(C)C(=O)[C@@H]12)C(=O)Nc1ccc(F)cc1

>  <Value Measured>
0.784

$$$$
>  <Molecule>
CCN1C(=O)[C@@H]2[C@@H](c3ccc(-c4cccc(Cl)c4)cc3)N3CCC[C@@]3(C(=O)OC)[C@@H]2C1=O

>  <Value Measured>
-0.179

$$$$

* * *

- Target Or System: FAD-linked sulfhydryl oxidase ALR (Homo sapiens)
- Assay Remarks: ALR-catalysed DTT oxidation blockers – biochemical, H2O2 detection, HRP-luminol luminescence, single point, primary screen (AID 485317)
- Recorded Conditions: purified ALR, stronger effect = higher value, concentration not given here
In all, about 290,000 compounds went through this assay and about 11,000 (3.8%) were called active. This is one part of a sample in which actives are shown more often than they occur.

>  <Compound>
CCOC(=O)Cc1csc(NC(=O)COc2ccc3c(C)cc(=O)oc3c2)n1

>  <inhibition (%)>
-3.23

$$$$
>  <Compound>
CC1(c2ccccc2)NC(=O)N(CC(=O)N2CC(=O)Nc3ccccc32)C1=O (centres undefined)

>  <inhibition (%)>
-7.27

$$$$
>  <Compound>
CCOC(=O)N1CCN(Cc2nc3c(c(=O)n(C)c(=O)n3C)n2Cc2ccccc2)CC1

>  <inhibition (%)>
-3.2

$$$$
>  <Compound>
C/C(CC(=O)Nc1ccc(N(C)C)cc1)=N\NC(=O)c1ccccc1F

>  <inhibition (%)>
87.2

$$$$
>  <Compound>
COc1cc(OC)c(C(=O)Nc2ccccc2-c2ccccc2)cc1OC

>  <inhibition (%)>
-1.64

$$$$
>  <Compound>
Cc1ccc(S(=O)(=O)NC(C)C(=O)NCc2ccc(Cl)cc2)cc1 (centres undefined)

>  <inhibition (%)>
10.6

$$$$
>  <Compound>
COc1ccc(NCc2nnc(SCc3ccccc3)n2-c2ccc(OC)cc2)cc1

>  <inhibition (%)>
91.9

$$$$
>  <Compound>
COc1ccc(CCNC(=S)N2CCN(S(=O)(=O)c3ccc(Cl)cc3)CC2)cc1

>  <inhibition (%)>
-0.053

$$$$
>  <Compound>
C=CCn1c(CNC(=O)c2ccco2)nnc1SCC(=O)c1ccc(OC)cc1

>  <inhibition (%)>
29.4

$$$$
>  <Compound>
O=C1CCCC(O)=C1N=Nc1ccc2ncsc2c1

>  <inhibition (%)>
97.4

$$$$
>  <Compound>
CC(=O)NCc1ccc(-c2csc(NC(=O)CCCc3nc4ccccc4c(=O)[nH]3)n2)cc1

>  <inhibition (%)>
-5.1

$$$$
>  <Compound>
COc1ccc(N2CCC(N3CCN(C)C(CCO)C3)CC2)cc1 (centres undefined)

>  <inhibition (%)>
86.4

$$$$
>  <Compound>
CCn1c(CNc2ccc(OC)cc2)nnc1SCC(=O)c1ccc(OC)cc1

>  <inhibition (%)>
98.6

$$$$
>  <Compound>
Oc1cc2c(cc1O)CN(C(=S)NCCc1ccc(Cl)cc1)CCC2

>  <inhibition (%)>
97.9

$$$$
>  <Compound>
O=C1CCCC(O)=C1N=Nc1ccc(S(=O)(=O)N2CCOCC2)cc1

>  <inhibition (%)>
-10.4

$$$$
>  <Compound>
COc1cccc(-c2nn(-c3ccccc3)cc2/C=C(\C#N)C(=O)NCCCn2ccnc2)c1

>  <inhibition (%)>
-6.12

$$$$
>  <Compound>
COC(=O)c1ccc(NC(=O)CSc2nnc(CNc3ccc(OC)cc3)n2C)cc1

>  <inhibition (%)>
-7.45

$$$$
>  <Compound>
CCOC(=O)Cc1csc(SCc2cc(=O)oc3cc(O)ccc23)n1

>  <inhibition (%)>
97.7

$$$$
>  <Compound>
O=C(COc1ccc(Br)cc1F)NCC1(N2CCCCC2)CCCCC1

>  <inhibition (%)>
2.53

$$$$
>  <Compound>
COc1ccc(-c2csc3ncnc(N4CCN(S(=O)(=O)c5cccc(F)c5)CC4)c23)cc1

>  <inhibition (%)>
0.272

$$$$
>  <Compound>
CCn1c(CSCc2c(Cl)cccc2Cl)n[nH]c1=S

>  <inhibition (%)>
67.9

$$$$
>  <Compound>
CCc1ccccc1OCC(=O)Nc1ccc(C)c(S(=O)(=O)N2CCCCCC2)c1

>  <inhibition (%)>
-0.917

$$$$
>  <Compound>
COc1ccc(OCC(=O)Nc2ccc(N3CCC(C)CC3)cc2)cc1

>  <inhibition (%)>
1.79

$$$$
>  <Compound>
COc1cc(OC)c(C(=O)Nc2ccc(N(C)C)cc2)cc1OC

>  <inhibition (%)>
99.6

$$$$

* * *

Listed next: entries and their corresponding inhibition.
- Target Or System: FAD-linked sulfhydryl oxidase ALR (Homo sapiens)
- Assay Remarks: ALR-catalysed DTT oxidation blockers – biochemical, H2O2 detection, HRP-luminol luminescence, single point, primary screen (AID 485317)
- Recorded Conditions: purified ALR, stronger effect = higher value, concentration not given here
The campaign covered roughly 290,000 compounds. About 11,000 (3.8%) were called active. What follows is part of a selection rich in actives, with near analogues and random picks from the rest.

>  <Compound>
CC(OC(=O)CCCOc1ccccc1)C(=O)Nc1ccc(Cl)cn1 (stereo unspecified)

>  <inhibition, %>
-0.655

$$$$
>  <Compound>
COc1ccc2oc(-c3cccc(NC(=O)CSc4ccc(Cl)cc4)c3)nc2c1

>  <inhibition, %>
-8.13

$$$$
>  <Compound>
CC(NC(=O)COC(=O)c1ccc2ccccc2n1)c1ccccc1 (stereo unspecified)

>  <inhibition, %>
-0.035

$$$$
>  <Compound>
Cn1c(-c2sccc2OCc2cccc(C(F)(F)F)c2)n[nH]c1=S

>  <inhibition, %>
1.68

$$$$
>  <Compound>
COc1ccc2cc(CCl)c(Cl)nc2c1

>  <inhibition, %>
98

$$$$
>  <Compound>
Cc1ccc(NC(=O)N2CCC(c3nc4c(nnn4Cc4c(F)cccc4Cl)c(=O)[nH]3)CC2)cc1

>  <inhibition, %>
-5.17

$$$$
>  <Compound>
CO[C@@H]1[C@@H](OC(N)=O)[C@@H](O)C(Oc2ccc3c(O)c(NC(=O)c4ccc(O)c(CC=C(C)C)c4)c(=O)oc3c2C)OC1(C)C (stereo partly specified)

>  <inhibition, %>
1.83

$$$$
>  <Compound>
COC(=O)c1nc(NC(=O)c2ccccc2)n[nH]1

>  <inhibition, %>
97.4

$$$$
>  <Compound>
CCN(CC(=O)NC(C)C)C(=O)c1cc(S(=O)(=O)N2CCCCC2)ccc1N1CCCCC1

>  <inhibition, %>
-1.75

$$$$
>  <Compound>
CN=C(Nc1cccc(S(=O)(=O)N2CCOCC2)c1)c1ccccc1

>  <inhibition, %>
-1.77

$$$$
>  <Compound>
COc1cc(OC)cc(-c2cc3ccc(F)cc3cn2)c1

>  <inhibition, %>
0.168

$$$$
>  <Compound>
C=CCn1c(-c2sc(-c3ccccc3)nc2C)n[nH]c1=S

>  <inhibition, %>
8.68

$$$$
>  <Compound>
O=C(CNC(=O)c1cccnc1)N/N=C/c1cc(Br)c(O)c(Br)c1

>  <inhibition, %>
43.1

$$$$
>  <Compound>
CC(Sc1cccc[n+]1[O-])C(=O)Nc1cccc(S(=O)(=O)N2CCOCC2)c1 (stereo unspecified)

>  <inhibition, %>
96.9

$$$$
>  <Compound>
COC(=O)CSc1nc(C)c2ccc(OC)cc2n1

>  <inhibition, %>
-12.7

$$$$
>  <Compound>
C=CC(COCc1ccccc1)N(CC(=O)OC)S(=O)(=O)c1cc(Br)ccc1OC (stereo unspecified)

>  <inhibition, %>
-15.6

$$$$

* * *

- Target Or System: FAD-linked sulfhydryl oxidase ALR (Homo sapiens) (UniProt P55789)
- Sequence (P55789 whole entry, looked up): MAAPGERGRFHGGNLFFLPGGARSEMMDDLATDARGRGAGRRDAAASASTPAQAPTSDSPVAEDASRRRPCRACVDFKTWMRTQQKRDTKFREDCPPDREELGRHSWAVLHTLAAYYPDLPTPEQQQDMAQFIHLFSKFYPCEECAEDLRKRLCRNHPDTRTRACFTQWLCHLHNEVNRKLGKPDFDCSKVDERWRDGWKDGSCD
- Assay Remarks: ALR-catalysed DTT oxidation blockers – biochemical, H2O2 detection, HRP-luminol luminescence, single point, primary screen (AID 485317)
- Recorded Conditions: purified ALR, concentration not given here
The whole screen tested about 290,000 compounds, of which about 11,000 (3.8%) were called active.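 How the source made its calls: active means mean replicate inhibition above about 79%, with every replicate also reaching it (limit read from the data); inconclusive means only one of the two criteria met; inactive means mean below limit and not every replicate reaching it.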 The sample as a whole holds a higher share of actives than the screen did.
Labels: active, inactive

>  <Compound>
COc1ccc(/C=N/NC(=O)c2ccc(Cl)cc2)cc1COC(C)=O

>  <Assigned Class>
inactive

$$$$
>  <Compound>
CN(Cc1ccc(F)cc1)C(=O)CN1C(=O)c2ccccc2S1(=O)=O

>  <Assigned Class>
inactive

$$$$
>  <Compound>
COC(=O)c1ccc(CSc2nncn2N)cc1

>  <Assigned Class>
inactive

$$$$
>  <Compound>
Cc1ccc(N2C(=O)SC(N(CC(=O)O)c3ccc(C)cc3)C2=O)cc1 (stereo unspecified)

>  <Assigned Class>
inactive

$$$$
>  <Compound>
COc1ccc(NC(=O)COC(=O)c2n[nH]c3ccccc23)c(OC)c1

>  <Assigned Class>
inactive

$$$$
>  <Compound>
CCOc1ccc(-n2c(SC(C)C(=O)OC)nc3c(c2=O)SCC3)cc1 (stereo unspecified)

>  <Assigned Class>
inactive

$$$$
>  <Compound>
CCOc1ccccc1NC(=O)CCc1nnc2ccc(NCc3ccco3)nn12

>  <Assigned Class>
inactive

$$$$
>  <Compound>
CC(C)CCNc1nc(N2CCCC2)c2c(c1C#N)CCN(C)C2

>  <Assigned Class>
active

$$$$
>  <Compound>
COc1ccc(/C=N/NC(=O)c2ccncc2)cc1CN1CCCc2ccccc21

>  <Assigned Class>
active

$$$$
>  <Compound>
Cc1c(NC(=O)C(C)OC(=O)c2c3c(nc4ccccc24)CCC(C)C3)c(=O)n(-c2ccccc2)n1C (stereo unspecified)

>  <Assigned Class>
inactive

$$$$
>  <Compound>
COc1cc(/C=N/NC(=O)CNC(=O)c2ccncc2)ccc1OC(C)=O

>  <Assigned Class>
inactive

$$$$

Reference source for all entries: PubChem BioAssay AID485317
